Known MIC80 of a selection of compounds
# Tested on: Candida albicans
# protocol: Antifungal activity against Candida albicans Y0109 after 24 hrs by serial dilution method
# Type: functional
# experimental_setup: Y0109, 24 h
Put your answer as a value accompanied by its unit after it.

Past entries and their recorded results:
[
  {
    "compound": "Cc1ccc(-n2cnn(CCCN3CCN(CC(O)(Cn4cncn4)c4ccc(F)cc4F)CC3)c2=O)cc1[N+](=O)[O-] (racemic)",
    "value": "0.25 µg/mL"
  },
  {
    "compound": "Cc1ccc(-n2cnn(CCCN3CCN(CC(O)(Cn4cncn4)c4ccc(F)cc4F)CC3)c2=O)c(C)c1 (racemic)",
    "value": "1 µg/mL"
  },
  {
    "compound": "Cc1ccc(C)c(-n2cnn(CCCN3CCN(CC(O)(Cn4cncn4)c4ccc(F)cc4F)CC3)c2=O)c1 (racemic)",
    "value": "0.25 µg/mL"
  },
  {
    "compound": "O=c1n(-c2ccc(Cl)cc2)cnn1CCCN1CCN(CC(O)(Cn2cncn2)c2ccc(F)cc2F)CC1 (racemic)",
    "value": "0.0625 µg/mL"
  },
  {
    "compound": "Cc1ccc(-n2cnn(CCCN3CCN(CC(O)(Cn4cncn4)c4ccc(F)cc4F)CC3)c2=O)cc1Cl (racemic)",
    "value": "0.0625 µg/mL"
  }
]

## Task Answer with reported MIC80 of O=c1n(-c2ccccc2F)cnn1CCCN1CCN(CC(O)(Cn2cncn2)c2ccc(F)cc2F)CC1 (racemic)
## Result 0.25 µg/mL

## Task Look up and report measured MIC80 for this entry: Cc1cc(C)cc(-n2cnn(CCCN3CCN(CC(O)(Cn4cncn4)c4ccc(F)cc4F)CC3)c2=O)c1 (racemic)
## Result 0.25 µg/mL

## Task Given the compound O=c1n(-c2ccc(F)cc2)cnn1CCCN1CCN(CC(O)(Cn2cncn2)c2ccc(F)cc2F)CC1 (racemic) , write its reported MIC80.
## Result 0.25 µg/mL

## Task Supply MIC80 value. Item: Cc1cccc(-n2cnn(CCCN3CCN(CC(O)(Cn4cncn4)c4ccc(F)cc4F)CC3)c2=O)c1 (racemic)
## Result 0.25 µg/mL

## Task Tell us which MIC80 value is on record for Cc1ccc(-n2cnn(CCCN3CCN(CC(O)(Cn4cncn4)c4ccc(F)cc4F)CC3)c2=O)cc1 (racemic)
## Result 0.25 µg/mL

## Task Check the records and state MIC80 for O=c1n(-c2ccc(I)cc2)cnn1CCCN1CCN(CC(O)(Cn2cncn2)c2ccc(F)cc2F)CC1 (racemic)
## Result 0.25 µg/mL

###

# Tested on: Candida albicans
# protocol: Antifungal activity against Candida albicans Y0109 after 24 hrs by serial dilution method
# Type: functional
# experimental_setup: Y0109, 24 h
Form field: MIC80 (one value per entry).
Provide the reading as a plain figure in µg/mL.

[
  {
    "compound": "Cc1ccc(-n2cnn(CCCN3CCN(CC(O)(Cn4cncn4)c4ccc(F)cc4F)CC3)c2=O)cc1C (racemic)",
    "MIC80 / µg/mL": 0.25
  },
  {
    "compound": "CCOc1ccc(-n2cnn(CCCN3CCN(CC(O)(Cn4cncn4)c4ccc(F)cc4F)CC3)c2=O)cc1 (racemic)",
    "MIC80 / µg/mL": 0.25
  },
  {
    "compound": "O=c1n(-c2ccccc2)cnn1CCCN1CCN(CC(O)(Cn2cncn2)c2ccc(F)cc2F)CC1 (racemic)",
    "MIC80 / µg/mL": 0.25
  },
  {
    "compound": "Cc1cccc(C)c1-n1cnn(CCCN2CCN(CC(O)(Cn3cncn3)c3ccc(F)cc3F)CC2)c1=O (racemic)",
    "MIC80 / µg/mL": 1
  }
]

// switching to the query compound
## Task State MIC80 on Candida albicans. Entry: CC(C)(C)c1ccc(-n2cnn(CCCN3CCN(CC(O)(Cn4cncn4)c4ccc(F)cc4F)CC3)c2=O)cc1 (racemic)
## Result 0.25
